Species on record: Mus musculus
experiment.summary: Analgesic activity in mouse by hot-plate method
Format: functional
So basically, if log(1/C) comes in under 2 it's MET, and if it's 2 or more it's NOT MET.

Solved entries (count: 4):
C[C@H]1C2Cc3ccc(O)cc3[C@@]1(C)CCN2CCc1ccccc1 (stereo in doubt; 2) ... NOT MET
CN1CC[C@]2(C)c3ccccc3CC1[C@@]2(C)O (mixture of isomers) ... MET
C=CC#CCN1CC[C@]2(CC)c3cc(O)ccc3CC1[C@@H]2CC (stereo in doubt; 72) ... NOT MET
CN1CC[C@@]2(C)CC1Cc1ccccc12 (mixture of isomers) ... MET

*Q* A record lists CN1CC[C@@]2(C)CC1Cc1ccc(O)cc12 (stereo in doubt; 31) . Is its log(1/C) below 2?
*A* NOT MET

*Q* Lab note: log(1/C) threshold 2. Does this compound come in strictly under it? CC[C@@]12CCN(C)C(Cc3ccc(O)cc31)[C@@]2(C)O (mixture of isomers)
*A* NOT MET

*Q* Could you please tell me whether log(1/C) recorded for CC[C@H]1C2Cc3ccc(O)cc3[C@@]1(C)CCN2C (stereo in doubt; 97) is less than 2?
*A* MET

*Q* For c1ccc2c(c1)CC1C[C@@H]2CCN1 (mixture of isomers) , is the recorded log(1/C) below the cut-off of 2?
*A* MET

*Q* Please check: log(1/C) for CCC[C@@]12CCN(CCc3ccccc3)C(Cc3ccc(O)cc31)[C@@H]2C (mixture of isomers) , strictly under 2 or not?
*A* NOT MET

*Q* Is the reported log(1/C) for C[C@H]1C2Cc3ccc(Cl)cc3[C@@]1(C)CCN2C (mixture of isomers) strictly below 2?
*A* MET

*Q* Hi there! Is log(1/C) for CCC[C@@]12CCN(C)C(Cc3ccccc31)[C@@H]2C (mixture of isomers) below 2, do you know?
*A* MET

----------
Species: Mus musculus
experiment.summary: Analgesic activity in mouse by hot-plate method
Type: functional
Define the label as true (1) when log(1/C) is strictly less than 2 and as false (0) in all remaining cases.

Examples from the recorded data:
CC(=O)Oc1ccc2c(c1)[C@@]1(C)CCN(CCc3ccccc3)C(C2)[C@@H]1C (mixture of isomers) ... false (0)
CN1CC[C@H]2CC1Cc1ccc(O)cc12 (stereo in doubt; 96) ... true (1)
CN1CC[C@@H]2c3cc(O)ccc3CC1[C@H]2CO (mixture of isomers) ... true (1)
COc1ccc2c(c1)[C@@]1(C)CCN(C)C(C2)C1 (mixture of isomers) ... true (1)

*Q* In the record for CC(=O)O[C@@]12CCN(C)C(Cc3ccccc31)C2 (mixture of isomers) , is log(1/C) less than 2?
*A* true (1)

----------
Species on record: Mus musculus
experiment.summary: Analgesic activity in mouse by hot-plate method
Format: functional
recorded.metric: log(1/C)
One number for each entry.

The following compounds have reported results that may help.
C[C@H]1[C@H]2Cc3ccc(O)cc3[C@@]1(C)CCN2CC1CC1 (racemic) ... 1.37
CC[C@@]1(O)C2Cc3ccc(OC)cc3[C@@]1(C)CCN2C (mixture of isomers) ... 1.87
CC[C@H]1C2Cc3ccc(OC(=O)c4cccnc4)cc3[C@@]1(CC)CCN2C (mixture of isomers) ... 1.54

Hello, I would appreciate it if you could give log(1/C) for each entry below.
1. CC(=O)Oc1ccc2c(c1)[C@@]1(C)CCN(C)C(C2)[C@]1(C)OC(C)=O (mixture of isomers)
2. CN1CC[C@]2(C)c3cc(O)ccc3CC1[C@@H]2O (mixture of isomers)
3. CCC(=O)O[C@@]12CCN(C)C(Cc3ccccc31)C2 (mixture of isomers)
4. CC[C@@]12CCN(C)C(Cc3ccc(O)cc31)[C@H]2O (mixture of isomers)

*A*
1. 2.66
2. 0.9
3. 1.43
4. 1.67

----------
Species: Mus musculus
experiment.summary: Analgesic activity in mouse by hot-plate method
Format: functional
recorded.metric: log(1/C)
Answers are plain numbers.

Go through the list and state log(1/C) for each entry.
1. C[C@H]1C2Cc3ccccc3[C@@]1(C)CCN2CCC(=O)c1ccccc1 (mixture of isomers)
2. CN1CC[C@@]2(c3ccccc3)CC1Cc1ccccc12 (stereo in doubt; 89)
3. CC[C@@]12CCN(C)C(Cc3ccc(O)cc31)[C@H]2C

*A*
1: 1.93; 2: 1.87; 3: 3.92

# map each compound to its log(1/C)
1. CC[C@H]1C2Cc3ccc(O)cc3[C@@]1(C)CCN2C (stereo in doubt; 21)
2. CCC[C@@]12CCN(C)C(Cc3ccccc31)[C@H]2C (mixture of isomers)
3. CCC[C@@]12CCN(C)C(Cc3ccc(O)cc31)[C@H]2C (mixture of isomers)
4. C[C@H]1C2Cc3ccc(OC(=O)c4cccnc4)cc3[C@@]1(C)CCN2CCc1ccccc1
5. CCC(=O)Oc1ccc2c(c1)[C@@]1(C)CCN(C)C(C2)C1 (mixture of isomers)
6. CC[C@@]12CCN(CCc3ccccc3)C(Cc3ccc(O)cc31)C2 (mixture of isomers)

*A*
1: 2.62; 2: 1.76; 3: 3.45; 4: 3.68; 5: 1.98; 6: 3.66

----------
Species on record: Mus musculus
experiment.summary: Analgesic activity in mouse by hot-plate method
Type: functional
If the reported log(1/C) equals or exceeds 3, assign Criterion met. If not, assign Criterion not met.

Take a look at these entries with their results.
C=CC#CCN1CC[C@]2(CC)c3cc(O)ccc3CC1[C@@H]2CC (stereo in doubt; 90) ... Criterion not met
C[C@@H]1C2Cc3ccc(O)cc3[C@@]1(c1ccccc1)CCN2C (stereo in doubt; 8) ... Criterion met
C[C@H]1C2Cc3ccccc3[C@@]1(C)CCN2C (mixture of isomers) ... Criterion not met
CCC[C@@]12CCN(C)C(Cc3ccc(O)cc31)C2 (mixture of isomers) ... Criterion not met

Now let's try a different one.
*Q* Check this compound for log(1/C) at or above 3: CCCCC(=O)Oc1ccc2c(c1)[C@@]1(c3ccccc3)CCN(C)C(C2)[C@H]1C
*A* Criterion not met

----------
Species: Mus musculus
experiment.summary: Analgesic activity in mouse by hot-plate method
Type: functional
Consider the following compounds; for each one, report its log(1/C).

Recorded log(1/C), per entry:
CN1CC[C@]2(C)c3ccccc3CC1[C@]2(C)O (mixture of isomers) ... 1.16
COc1ccc2c(c1)[C@@]1(C)CCN(CCc3ccccc3)C(C2)[C@@H]1O (mixture of isomers) ... 1.58
COc1ccc2c(c1)[C@@]1(C)CCN(C)C(C2)[C@H]1O (mixture of isomers) ... 1.14
CN1CC[C@@]2(c3ccccc3)CC1Cc1ccccc12 (stereo in doubt; 44) ... 1.77

Then this compound:
*Q* Form field: reported log(1/C) of CC[C@@]12CCN(C)C(Cc3ccc(OC(C)=O)cc31)[C@@H]2OC(C)=O (mixture of isomers)
*A* 2.53

----------
So I've got a bunch of compounds here, and I need their log(1/C) values.
Organism: Mus musculus
experiment.summary: Analgesic activity in mouse by hot-plate method
Assay type: functional
One number for each entry.

CN1CC[C@@]2(C)CC1Cc1ccc(O)cc12 (stereo in doubt; 98) ... 1.04
CC[C@H]1C2Cc3ccc(OC)cc3[C@@]1(CC)CCN2C (stereo in doubt; 91) ... 1.62
CC[C@@]12CCN(C)C(Cc3ccc(OC)cc31)[C@@H]2OC(C)=O (mixture of isomers) ... 1.48
COc1ccc2c(c1)[C@@]1(C)CCN(C)C(C2)[C@]1(C)O (mixture of isomers) ... 1.65
COc1ccc2c(c1)[C@@]1(C)CCN(C)C(C2)[C@@H]1C ... 1.87

Hello, I would appreciate it if you could give log(1/C) for each entry below.
1. CN1CC[C@]2(C)c3cc(O)ccc3CC1[C@]2(C)O (mixture of isomers)
2. COc1ccc2c(c1)[C@@]1(C)CCN(C)C(C2)[C@@]1(C)O
3. CC(C)=CCN1CC[C@]2(C)c3cc(O)ccc3CC1[C@H]2C
4. CC[C@@]12CCN(C)C(Cc3ccc(O)cc31)[C@]2(C)OC(C)=O (mixture of isomers)
5. CC[C@H]1C2Cc3ccc(OC)cc3[C@@]1(CC)CCN2C (stereo in doubt; 42)
6. CC[C@@]12CCN(C)C(Cc3ccc(OC(C)=O)cc31)[C@]2(C)OC(C)=O (mixture of isomers)
7. CCCC(=O)Oc1ccc2c(c1)[C@@]1(C)CCN(C)C(C2)C1 (mixture of isomers)

*A*
[1.89, 1.48, 1.7, 2.78, 1.81, 2.82, 1.92]

----------
Organism: Mus musculus
experiment.summary: Analgesic activity in mouse by hot-plate method
Format: functional
recorded.metric: log(1/C)

CC[C@@H]1C2Cc3ccc(O)cc3[C@@]1(C)CCN2C (mixture of isomers) ... 3.07
CC(=O)Oc1ccc2c(c1)[C@@]1(C)CCN(CCC(=O)c3ccccc3)C(C2)[C@@H]1C (mixture of isomers) ... 2.49
C[C@H]1C2Cc3ccc(F)cc3[C@@]1(C)CCN2C (mixture of isomers) ... 1.08
C[C@H]1C2Cc3ccc(OC(=O)c4cccnc4)cc3[C@@]1(C)CCN2CC1CC1 (mixture of isomers) ... 2.59
CCC[C@@]12CCN(C)C(Cc3ccc(O)cc31)[C@@H]2C (stereo in doubt; 94) ... 1.38

Look at each compound and report its log(1/C).
1. CC(C)=CCN1CC[C@]2(C)c3cc(O)ccc3CC1[C@@H]2C
2. CC[C@H]1C2Cc3ccc(OC(C)=O)cc3[C@@]1(CC)CCN2C (mixture of isomers)

*A*
[1.53, 2.36]

These entries and their values trace back to ChEMBL document CHEMBL3272144.
